- study_target: KRAS (Homo sapiens)
- Construct: endogenous in cells; host or cells: KE39 (KRAS amplified) cells
- Sequence (P01116 1-188 isoform P01116-2): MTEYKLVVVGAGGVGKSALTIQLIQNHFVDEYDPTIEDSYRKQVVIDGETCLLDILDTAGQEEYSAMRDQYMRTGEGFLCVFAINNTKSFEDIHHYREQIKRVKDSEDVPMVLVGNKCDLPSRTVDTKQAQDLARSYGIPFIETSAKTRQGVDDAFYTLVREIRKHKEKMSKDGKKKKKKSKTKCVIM
- experimental_protocol: KRASamp MSD assay
- Type: cell-based
- conditions: KE39 (KRAS amplified) cells, treated with test compounds for 24 hr, MSD readout of KRAS degradation
Readings of DC50 for the listed molecules

Guide cases for DC50, answers given:
molecule	readout_type	measurement
C#Cc1c(F)ccc2cc(O)cc(-c3ncc4c(N5CCC[C@@](C)(O)C5)nc(OC[C@@]56CCCN5[C@H](COC(=O)N5CCC(CN7CCC(c8cc9c(cc8F)n(C8CCC(=O)NC8=O)c(=O)n9C)CC7)CC5)CC6)nc4c3F)c12 (stereo partly shown)	DC50	< 1 nM
CCc1c(F)ccc2cc(O)cc(-c3ncc4c(N5CC6(CCC6)C5)nc(OC[C@@]56CCCN5[C@H](COC(=O)N5CCC7(CC5)CC(N5CCC(c8ccc9c(c8)n(C)c(=O)n9C8CCC(=O)NC8=O)CC5)C7)CC6)nc4c3F)c12 (stereo partly shown)	DC50	≥ 10 nM
CCc1c(F)ccc2cc(O)cc(-c3ncc4c(N5CCC[C@@](C)(O)C5)nc(OC[C@@]56CCCN5[C@H](COC(=O)N5CCC(OCCCc7cccc8c7n(C)c(=O)n8C7CCC(=O)NC7=O)CC5)CC6)nc4c3F)c12 (stereo partly shown)	DC50	< 1 nM

For the molecule C#Cc1c(F)ccc2cc(O)cc(-c3ncc4c(N5CCC[C@@](C)(O)C5)nc(OC[C@@]56CCCN5[C@H](COC(=O)N5CCC7(CC5)CCN7C5CCN(c7ccc8c(c7)n(C)c(=O)n8C7CCC(=O)NC7=O)CC5)CC6)nc4c3F)c12 (stereo partly shown) , what DC50 is on record?
≥ 10 nM

* * *

- study_target: KRAS G12D (Homo sapiens, UniProt P01116, G12D)
- Construct: AsPc-1-KRAS (G12D)-HiBit-KI cell (Pharmaron); host or cells: AsPc-1-KRAS (G12D)-HiBit-KI cells (HiBiT knock-in at the endogenous KRAS locus)
- Sequence (P01116 1-188 isoform P01116-2 G12D): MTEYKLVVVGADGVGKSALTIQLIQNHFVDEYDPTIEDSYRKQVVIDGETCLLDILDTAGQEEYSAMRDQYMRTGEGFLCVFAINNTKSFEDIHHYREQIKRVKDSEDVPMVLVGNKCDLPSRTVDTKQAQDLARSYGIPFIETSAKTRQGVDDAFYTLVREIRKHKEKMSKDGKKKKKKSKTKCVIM
- experimental_protocol: KRAS G12D HiBit assay
- Type: cell-based
- conditions: AsPc-1-KRAS (G12D)-HiBit-KI cell, compound treatment for 24 hours, absolute DC50; class symbols
readout_type: DC50

Guide cases for DC50, answers given:
compound	measurement
CCc1c(F)ccc2cc(O)cc(-c3ncc4c(N5CCCC(F)(F)C5)nc(OC[C@@]56CCCN5[C@H](COC(=O)N5CCC7(CC5)CC(N5CCC(c8ccc9c(c8)n(C)c(=O)n9C8CCC(=O)NC8=O)CC5)C7)CC6)nc4c3F)c12 (stereo partly shown) [Compound 470]	< 100 nM
CCc1c(F)ccc2cc(O)cc(-c3ncc4c(N5CCC[C@@](C)(O)C5)nc(OC[C@@]56CCCN5[C@H](COC(=O)N5CCC(N7CC8(CC(c9ccc%10c(c9)n(C)c(=O)n%10C9CCC(=O)NC9=O)C8)C7)CC5)CC6)nc4c3F)c12 (stereo partly shown) [Compound 365]	< 100 nM
C[C@H]1CN(CCOCCOc2ccc3c(c2)n(C)c(=O)n3C2CCC(=O)NC2=O)CCCN1c1nccc(-c2noc([C@@]3(C)CCCc4sc(N)c(C#N)c43)n2)n1 (stereo partly shown) [Compound 209]	> 300 nM

Consider the record given below.
For the compound C#Cc1c(F)ccc2cccc(-c3ncc4c(N5CCC[C@@](C)(O)C5)nc(OC[C@@]56CCCN5[C@H](COC(=O)N5CCC(CN7CCC(c8ccc9c(c8)n(C8CCC(=O)NC8=O)c(=O)n9C)CC7)CC5)CC6)nc4c3F)c12 (stereo partly shown) [Compound 136] , what DC50 is on record?
> 300 nM

* * *

Readings of DC50 for the listed molecules
- study_target: KRAS G12V (Homo sapiens, UniProt P01116, G12V)
- Construct: SW620-KRAS (G12V)-HiBit-KI cell (Pharmaron); host or cells: SW620-KRAS (G12V)-HiBit-KI cells (HiBiT knock-in at the endogenous KRAS locus)
- Sequence (P01116 1-188 isoform P01116-2 G12V): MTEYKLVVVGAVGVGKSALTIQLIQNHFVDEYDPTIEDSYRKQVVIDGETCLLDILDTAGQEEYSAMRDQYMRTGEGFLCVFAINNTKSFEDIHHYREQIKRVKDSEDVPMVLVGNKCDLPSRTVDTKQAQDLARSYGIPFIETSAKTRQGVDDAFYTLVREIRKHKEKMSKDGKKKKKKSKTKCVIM
- experimental_protocol: KRAS G12V HiBit assay
- Type: cell-based
- conditions: SW620-KRAS (G12V)-HiBit-KI cells, compound treatment for 24 hours, class symbols

Guide cases for DC50, answers given:
molecule	DC50
CCc1c(F)ccc2cc(O)cc(-c3ncc4c(N5CCCOCC5)nc(OC[C@]56CCCN5[C@H](COC(=O)N5CCC(CN7CCC(c8ccc9c(c8)n(C)c(=O)n9C8CCC(=O)NC8=O)CC7)CC5)CC6)nc4c3F)c12 (some centres unmarked)	< 10 nM
CCc1c(F)ccc2cc(O)cc(-c3ncc4c(N5CCOCC(C)(O)C5)nc(OC[C@@]56CCCN5[C@H](COC(=O)N5CCC(CN7CCC(c8ccc9c(c8)n(C)c(=O)n9C8CCC(=O)NC8=O)CC7)CC5)CC6)nc4c3F)c12 (some centres unmarked)	< 10 nM

For the molecule CCc1c(F)ccc2cc(O)cc(-c3ncc4c(N5CCC[C@@](C)(O)C5)nc(OC[C@@]56CCCN5[C@H](COC(=O)N5CC7(CCN(CC8CCN(c9ccc%10c(c9)n(C)c(=O)n%10C9CCC(=O)NC9=O)CC8)CC7)C5)CC6)nc4c3F)c12 (some centres unmarked) , what DC50 is on record?
< 10 nM

For the molecule C#Cc1c(F)ccc2cc(O)cc(-c3ncc4c(N5CCC[C@@](C)(O)C5)nc(OCC5(CN6CCC(N7CCC(c8cccc9c(C%10CCC(=O)NC%10=O)nn(C)c89)CC7)CC6)CC5)nc4c3F)c12 (some centres unmarked) , what DC50 is on record?
< 10 nM

For the molecule C#Cc1c(F)ccc2cc(O)cc(-c3ncc4c(N5CCCCCC5)nc(OC[C@@]56CCCN5[C@H](COC(=O)N5CCC(CN7CCC(c8ccc9c(c8)n(C)c(=O)n9C8CCC(=O)NC8=O)CC7)CC5)CC6)nc4c3F)c12 (some centres unmarked) , what DC50 is on record?
< 10 nM

For the molecule C#Cc1c(F)ccc2cccc(-c3ncc4c(N5CCC[C@@](C)(O)C5)nc(OCC5(CN6CCC(CN7CCN(c8ccc9c(c8)C(=O)N(C8CCC(=O)NC8=O)C9=O)CC7)CC6)CC5)nc4c3F)c12 (some centres unmarked) , what DC50 is on record?
> 100 nM

For the molecule C#Cc1c(F)ccc2cccc(-c3ncc4c(N5CCC[C@@](C)(O)C5)nc(OCC5(CN6CCC7(CC6)CC(N6CCN(c8cccc9c8n(C)c(=O)n9C8CCC(=O)NC8=O)CC6)C7)CC5)nc4c3F)c12 (some centres unmarked) , what DC50 is on record?
> 100 nM

For the molecule CCc1c(F)ccc2cc(O)cc(-c3ncc4c(N5CCC[C@@](C)(O)C5)nc(OC[C@]56CCCN5[C@H](COC(=O)NC5CCN(c7cccc8c7n(C)c(=O)n8C7CCC(=O)NC7=O)CC5)CC6)nc4c3F)c12 (some centres unmarked) , what DC50 is on record?
> 100 nM

For the molecule CCc1c(F)ccc2cc(O)cc(-c3ncc4c(N5CCC[C@@](C)(O)C5)nc(OC[C@@]56CCCN5[C@H](COC(=O)N5CCC7(CCC(N8CCC(c9ccc%10c(c9)n(C)c(=O)n%10C9CCC(=O)NC9=O)CC8)CC7)CC5)CC6)nc4c3F)c12 (some centres unmarked) , what DC50 is on record?
< 10 nM

For the molecule CCc1c(F)ccc2cc(O)cc(-c3ncc4c(N5CCC[C@@](C)(O)C5)nc(OC[C@@]56CCCN5[C@H](COC(=O)N5CCC(CN7CC(c8ccc9c(c8)n(C)c(=O)n9C8CCC(=O)NC8=O)C7)CC5)CC6)nc4c3F)c12 (some centres unmarked) , what DC50 is on record?
10 to 100 nM

For the molecule CCc1c(F)ccc2cc(O)cc(-c3ncc4c(N5CCC[C@@](C)(O)C5)nc(OC[C@@]56CCCN5[C@H](COC(=O)N5CCC7(CC5)CCN(C5CCN(c8ccc9c(c8)n(C)c(=O)n9C8CCC(=O)NC8=O)CC5)C7)CC6)nc4c3F)c12 (some centres unmarked) , what DC50 is on record?
< 10 nM

* * *

- study_target: KRAS (Homo sapiens)
- Construct: endogenous in cells; host or cells: KE39 (KRAS amplified) cells
- experimental_protocol: KRASamp MSD assay
- Assay type: cell-based
- conditions: KE39 (KRAS amplified) cells, treated with test compounds for 24 hr, MSD readout of KRAS degradation
Readings of DC50 for the listed compounds

compound	DC50
CCc1c(F)ccc2cc(O)cc(-c3ncc4c(N5CCC[C@@](C)(O)C5)nc(OC[C@@]56CCCN5[C@@H](COC(=O)N5CCC(CCCCOc7ccc8c(c7)n(C)c(=O)n8C7CCC(=O)NC7=O)CC5)CC6)nc4c3F)c12 (some centres unmarked)	≥ 10 nM

Consider the record given below.
For the compound C#Cc1c(F)ccc2cc(O)cc(-c3ncc4c(N5CCC[C@@](C)(O)C5)nc(OC[C@@]56CCCN5[C@H](COC(=O)N5CCC(C7CCN(c8ccc9c(c8)n(C)c(=O)n9C8CCC(=O)NC8=O)CC7)CC5)CC6)nc4c3F)c12 (some centres unmarked) , what DC50 is on record?
1 to 10 nM
